Conditions: in sec-butanol, 323.15 K
assay.readout: solubility (mole fraction)

>>> measured_result("c1ccc(-c2ccc(C(c3ccccc3)n3ccnc3)cc2)cc1 (stereo unspecified)")
0.0183

###

Settings: in isopentanol, 288.17 K
assay.readout: solubility (mole fraction)

>>> measured_result("c1ccc(-c2ccc(C(c3ccccc3)n3ccnc3)cc2)cc1 (stereo unspecified)")
0.00512

###

Conditions: in sec-butanol, 283.13 K
assay.readout: solubility (mole fraction)

>>> measured_result("c1ccc(-c2ccc(C(c3ccccc3)n3ccnc3)cc2)cc1 (stereo unspecified)")
0.00212

###

Settings: in n-butanol, 313.11 K
assay.readout: solubility (mole fraction)

>>> measured_result("c1ccc(-c2ccc(C(c3ccccc3)n3ccnc3)cc2)cc1 (stereo unspecified)")
0.0163
